- Test system: hindlimb tonic extensor component of the maximal seizure pattern
- Method: Anticonvulsive activity in mice (maximal electroshock seizure)
- Type: in vivo
- Reported Conditions: Mus musculus, po, 0.5 h, p.o., 30 min. after administration
Counter-ions that a name gives are not always drawn.
Some compounds, each annotated with its measured ED50.
# value in mg/kg; strip the unit string

Sample answers from the record:
{"Compound": "Cl.Nc1ccc(C(=O)NCc2ccccc2)c(Cl)c1 [G]", "Unit Info": "mg/kg", "Measurement": 68}
{"Compound": "CN(C(=O)c1ccc(N)cc1Cl)C1CCCCC1 [H]", "Unit Info": "mg/kg", "Measurement": 200}
{"Compound": "CCN1CCCC1CNC(=O)c1cc([N+](=O)[O-])cc(Cl)c1N (centres unmarked) [B]", "Unit Info": "mg/kg", "Measurement": 78}
{"Compound": "CCN1CCCC1CNC(=O)c1cc(Cl)cc(C(F)(F)F)c1N (centres unmarked) [I, hydrochloride]", "Unit Info": "mg/kg", "Measurement": 72}
{"Compound": "CCN1CCCC1CNC(=O)c1cc(F)c(N)c(Cl)c1 (centres unmarked) [Compound C]", "Unit Info": "mg/kg", "Measurement": 37}
{"Compound": "CCN1CCCC1CNC(=O)c1cc(C)cc(Cl)c1N (centres unmarked) [A]", "Unit Info": "mg/kg", "Measurement": 28}
{"Compound": "CCN1CCCC1CNC(=O)c1cc(Cl)c(N)c(C(F)(F)F)c1 (centres unmarked) [J, hydrochloride]", "Unit Info": "mg/kg", "Measurement": 62}
{"Compound": "CCN1CCCC1CNC(=O)c1cc(Cl)cc(Cl)c1N (centres unmarked) [D, hydrochloride]", "Unit Info": "mg/kg", "Measurement": 35}

Find the recorded ED50 belonging to CCN1CCCC1CNC(=O)c1cc(Br)cc(Cl)c1N (centres unmarked) [E, hydrochloride] and report it.
44

Please look up its ED50: Cl.Nc1ccc(C(=O)NC2CCCCC2)c(Cl)c1 [F]
38
